- Tested on: NCI-H23
- test-method-notes: NCI tumour cell line growth inhibition, 48 h
The source made the active and inactive calls. Cut-off read from the data, not from the text of the source: active = GI50 up to about 1.1 µM and inactive = higher.
readout-name: GI50

1) CCN(CC)CCCNc1ccc2nnn3c4ccc(O)cc4c(=O)c1c23: 11.2 µM (inactive)
2) NC1CCCCC1.O=P(O)(O)C1(P(=O)(O)O)CC1: > 100 µM (inactive)
3) Fc1c(F)c(C(F)(F)F)c(F)c(F)c1N/N=C/c1cn(Cc2ccccc2)c2ccccc12: 27.5 µM (inactive)
4) Cc1cccc(/C=C2\CCCCCC2=O)c1: > 100 µM (inactive)

Now look at this entry.
Provide NCI-H23 GI50 reading for C=C1C(=O)OC2C3C(=C)[C@@H](OC(C)=O)CC3C(C)=CC(OC(=O)C(C)(O)C(C)OC(C)=O)[C@@H]12 (stereo not given in full) .
13.2 µM (inactive)

----------
Catalogue of GI50 readings, one per entry.
- System: KM12
- test-method-notes: NCI tumour cell line growth inhibition, 48 h
Activity calls are given as the source filed them. Rule as the data show it: active = GI50 up to about 1.1 µM and inactive = higher.

Recorded results for 3 compounds are shown here.
1) O=C(ON=C1c2ccccc2C(Br)C(Br)c2ccccc21)c1cc([N+](=O)[O-])cc([N+](=O)[O-])c1 (stereo not given): 19.4 µM (inactive)
2) CC(C)N1CCC2(CC1)NNc1ncccc1-n1cccc12: > 100 µM (inactive)
3) CC12CC3OC(=O)C1COC14OC5(C2C1=O)C(O)(CCC1C4CC2OC24CC=CC(=O)C14C)C(=O)OC35C (stereo not given): 17.3 µM (inactive)

Give the reported value of GI50 for this record: COC(=O)/C=C/CCC#Cc1ccccc1C#CCC/C=C/C(=O)OC
4.98 µM (inactive)

Give the reported value of GI50 for this record: CCCCCCNc1n[nH]c(=O)c2c1nnn2Cc1ccccc1
> 100 µM (inactive)

----------
- System: COLO 205
- test-method-notes: NCI tumour cell line growth inhibition, 48 h
Calls of active or inactive are those of the source. No stated cut-off is given here; in the data, active = GI50 up to about 1.1 µM and inactive = higher.
Hi there, use one of these labels in your reply, thanks! y for active, n for inactive

Solved entries (count: 5):
1) COc1ccc(/C=C/C(=O)C(C)C)cc1: n
2) CN1N=C2c3ccccc3CC[C@H]2C1c1cccc(O)c1 (stereo partly specified): n
3) CC(=O)CC(=O)/C=C/c1cccs1: n
4) O=S1(=O)COc2ccccc2-c2ncncc21: n
5) Cc1ncc([N+](=O)[O-])n1CCNCCCCn1ccnc1[N+](=O)[O-]: n

GET /call?item= Cc1cc2c(nn1)CCc1c-2no[n+]1[O-] returns the recorded outcome of this test.
n

GET /call?item= CC(C)(NO)/C(=N\O)c1ccco1 returns the recorded outcome of this test.
n

GET /call?item= COc1ccc(-c2cc(-c3ccccc3)nc(/N=C\c3ccccc3)n2)c(O)c1 returns the recorded outcome of this test.
n

GET /call?item= O=c1c2cc(S(=O)(=O)O)ccc2nc(COc2ccc(Oc3ccc(Cl)cc3Cl)cc2)n1C(=S)Nc1ccc(Cl)cc1 returns the recorded outcome of this test.
n

GET /call?item= CC(C)(C)OC(=O)N1CC(C)(C)N2C(=O)C3(CCCO3)C12 (stereo unspecified) returns the recorded outcome of this test.
n

----------
Catalogue of GI50 readings, one per entry.
- Tested on: 786-0
- test-method-notes: NCI tumour cell line growth inhibition, 48 h
Active and inactive are the calls of the source. Rule as the data show it: active = GI50 up to about 1.1 µM and inactive = higher.

Recorded results for 2 compounds are shown here.
1) CC1(C)[C@@H]2C[C@H]1C(Cc1ccc(C[C@H]3c4cc(-c5ccccn5)ncc4[C@H]4C[C@@H]3C4(C)C)cc1)c1cc(-c3ccccn3)ncc12 (stereo not given in full): 1.41 µM (inactive)
2) CC(C)=CCN1CC(C)C(=O)Nc2cc(Cl)ccc21 (stereo not given): 19.2 µM (inactive)

Give the reported value of GI50 for this record: CCOC(=O)C(CCN1CCC2(CC1)C(=O)N(C)CN2c1ccccc1)C(=O)OCC
> 100 µM (inactive)

Give the reported value of GI50 for this record: CNC(=O)NCCN1N=C(C)/C(=C\c2ccccc2)CC1=O
> 100 µM (inactive)

Give the reported value of GI50 for this record: C=Cc1c(C)c2cc3nc(c4c5[nH]c(cc6nc(cc1[nH]2)C(C)=C6CC)c(C)c5C(=O)C4C(=O)OC)C(CCC(=O)OC)C3C (stereo not given)
> 100 µM (inactive)

Cited source for all entries: ChEMBL document CHEMBL1201862
